System: MDA-MB-468 breast
Experiment: NCI-60 one-dose screen, 48 h (100 = growth as untreated, 0 = no growth, -100 = all killed)
Conditions: 10 µM unless noted
Compounds without any hit were thinned out: in the full panel of roughly 83,000, 20% have a hit.
The following compounds are listed with their measured growth values.
Answer format: numeric, % implied, no suffix.

Answered examples (6):
CCOC(=O)c1c(Nc2ccccc2)nn2c(-c3cccs3)ccnc12	73.3
NC(=O)c1c(NC(=O)c2ccccn2)sc2c1CCC(=O)C2	6.36
C=CCCCCCCCCC(=O)OC(C)C	97.5
Nn1c(N/N=C/c2nc3ccccc3s2)n[nH]c1=S	109
Cc1ccc(-c2c(Br)c(OC(=O)CO[C@@H]3C[C@H](C)CC[C@H]3C(C)C)c(-c3ccc(C)cc3C)c(Br)c2OC(=O)CO[C@H]2C[C@@H](C)CC[C@@H]2C(C)C)c(C)c1	34.5
CC[C@]12C=CCN3CC[C@@]4(c5cc(NC(=O)CCC(=O)O[C@H]6CC[C@H]7[C@@H]8CCC9=CC(=O)CC[C@@H]9[C@H]8CC[C@]67C)c(OC)cc5N(C)[C@H]4[C@@](O)(C(=O)OC)[C@@H]1OC(C)=O)[C@@H]32	51.9

# evaluate next
query: Could you tell me which growth is on file for COc1cc(/C=C\c2cc(OC)c(OC)c(OC)c2)cc(NS(=O)(=O)c2ccc(Cl)cc2)c1OC ?
result: 19.1
